- testedOn: hVR1 (Homo sapiens (Human), UniProt Q8NER1)
- Sequence (Q8NER1 whole entry): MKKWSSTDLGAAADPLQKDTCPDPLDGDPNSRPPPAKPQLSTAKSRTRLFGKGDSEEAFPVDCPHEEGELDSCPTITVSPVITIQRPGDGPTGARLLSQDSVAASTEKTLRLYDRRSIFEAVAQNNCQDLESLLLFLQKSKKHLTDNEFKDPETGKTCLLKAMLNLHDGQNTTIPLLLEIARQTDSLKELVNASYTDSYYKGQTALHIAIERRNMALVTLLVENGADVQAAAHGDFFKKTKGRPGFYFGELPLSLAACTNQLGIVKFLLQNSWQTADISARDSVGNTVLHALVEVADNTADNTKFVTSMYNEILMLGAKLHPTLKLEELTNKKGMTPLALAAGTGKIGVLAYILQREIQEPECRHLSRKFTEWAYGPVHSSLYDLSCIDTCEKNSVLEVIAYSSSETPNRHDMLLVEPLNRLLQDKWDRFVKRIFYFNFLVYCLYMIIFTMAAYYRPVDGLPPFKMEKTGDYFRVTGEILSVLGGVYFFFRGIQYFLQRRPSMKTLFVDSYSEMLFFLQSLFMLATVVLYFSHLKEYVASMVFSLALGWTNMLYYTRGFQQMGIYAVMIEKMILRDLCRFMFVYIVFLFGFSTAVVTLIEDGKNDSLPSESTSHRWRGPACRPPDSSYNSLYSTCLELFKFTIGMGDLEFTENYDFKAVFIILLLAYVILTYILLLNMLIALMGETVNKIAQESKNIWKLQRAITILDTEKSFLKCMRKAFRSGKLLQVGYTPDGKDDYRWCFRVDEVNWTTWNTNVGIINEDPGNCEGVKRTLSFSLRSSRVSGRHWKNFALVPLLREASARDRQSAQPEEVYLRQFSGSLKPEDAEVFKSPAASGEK
- protocol: FLIPR Ca2+ influx assay on CHO K1 cells transfected with the VR1 gene, capsaicin stimulus (method II)
- Type: cell-based
- measurementContext: capsaicin (Cap), read-out: Ki (human being) [nM] Cap
measurementName: Ki (nM)
State just the number; it will be interpreted in nM.

Q: Write down the reported Ki of COc1c(F)cc(C(C)C(=O)NCc2cc(C(F)(F)F)nn2-c2cccc(Cl)c2)cc1F (stereo not drawn) , test system: hVR1 (Homo sapiens (Human), UniProt Q8NER1).
Result: 17

Q: Write down the reported Ki of CCCCCCn1nc(C(C)(C)C)cc1CNC(=O)[C@@H](C)c1ccc(NS(C)(=O)=O)c(F)c1 , test system: hVR1 (Homo sapiens (Human), UniProt Q8NER1).
Result: 27.7

Q: Write down the reported Ki of CC(C(=O)NCc1cc(C(C)(C)C)nn1-c1ccc(C(C)(C)C)cc1)c1ccc(NS(C)(=O)=O)c(F)c1 (stereo not drawn) , test system: hVR1 (Homo sapiens (Human), UniProt Q8NER1).
Result: 75.2

Q: Write down the reported Ki of CC(C(=O)NCc1cc(C(F)(F)F)nn1C1CCCCC1)c1ccc(CNS(C)(=O)=O)c(F)c1 (stereo not drawn) , test system: hVR1 (Homo sapiens (Human), UniProt Q8NER1).
Result: 65.1

Q: Write down the reported Ki of O=C(NCc1cc(C(F)(F)F)nn1-c1cccc(Cl)c1)Nc1ccc(C2CC2)c(F)c1 , test system: hVR1 (Homo sapiens (Human), UniProt Q8NER1).
Result: 31.4

Q: Write down the reported Ki of CC(C(=O)NCc1cc(C(F)(F)F)nn1-c1cccc(Cl)c1)c1cc(F)cc(F)c1 (stereo not drawn) , test system: hVR1 (Homo sapiens (Human), UniProt Q8NER1).
Result: 6.3

Q: Write down the reported Ki of O=C(Cc1cccc(F)c1)NCc1cc(C(F)(F)F)nn1-c1cccc(Cl)c1 , test system: hVR1 (Homo sapiens (Human), UniProt Q8NER1).
Result: 51.8

Q: Write down the reported Ki of C[C@H](C(=O)NCc1cc(C(F)(F)F)nn1-c1ccc(Cl)cc1)c1ccc(NS(C)(=O)=O)c(F)c1 , test system: hVR1 (Homo sapiens (Human), UniProt Q8NER1).
Result: 0.3

Q: Write down the reported Ki of C[C@@H](C(=O)NCc1cc(C(F)(F)F)nn1-c1ccc(Cl)cc1)c1ccc(NS(C)(=O)=O)c(F)c1 , test system: hVR1 (Homo sapiens (Human), UniProt Q8NER1).
Result: 31.7

Q: Write down the reported Ki of CC(C(=O)NCc1cc(C(F)(F)F)nn1-c1cccc(Cl)c1)c1ccc(C(=O)Nc2ccc(C(F)(F)F)cc2)cc1 (stereo not drawn) , test system: hVR1 (Homo sapiens (Human), UniProt Q8NER1).
Result: 85

Q: Write down the reported Ki of CC(C(=O)NCc1cc(C(F)(F)F)nn1NCc1ccccn1)c1ccc(CNS(C)(=O)=O)c(F)c1 (stereo not drawn) , test system: hVR1 (Homo sapiens (Human), UniProt Q8NER1).
Result: 63.6

Q: Write down the reported Ki of CC(C(=O)NCc1cc(C(C)(C)C)nn1-c1ccc(F)c(Cl)c1)c1ccc(NS(C)(=O)=O)c(F)c1 (stereo not drawn) , test system: hVR1 (Homo sapiens (Human), UniProt Q8NER1).
Result: 0.5

Q: Write down the reported Ki of CCCCCCn1nc(C(C)(C)C)cc1CNC(=O)C(C)c1ccc(NS(C)(=O)=O)c(F)c1 (stereo not drawn) , test system: hVR1 (Homo sapiens (Human), UniProt Q8NER1).
Result: 50.2

Q: Write down the reported Ki of O=C(NCc1cc(C(F)(F)F)nn1-c1cccc(Cl)c1)C1(c2cccc(F)c2)CCC1 , test system: hVR1 (Homo sapiens (Human), UniProt Q8NER1).
Result: 107

Q: Write down the reported Ki of COc1cc(C(C)C(=O)NCc2cc(C(C)(C)C)nn2-c2cccc(Cl)c2)ccc1NS(C)(=O)=O (stereo not drawn) , test system: hVR1 (Homo sapiens (Human), UniProt Q8NER1).
Result: 2.2
